Please respond with reported IC50 for every item in the list.

INPUT: Can you look up IC50 on Dual specificity protein phosphatase 3 (Homo sapiens) for CC/C=C1\SC(=S)N(c2cccc(C(=O)O)c2)C1=O ?
OUTPUT: > 200 µM

INPUT: Fill in the recorded IC50 for this molecule, with Dual specificity protein phosphatase 3 (Homo sapiens) as test system: O=C(O)c1ccc(N2C(=O)/C(=C/c3ccccc3)SC2=S)cc1
Sequence (P51452 whole entry): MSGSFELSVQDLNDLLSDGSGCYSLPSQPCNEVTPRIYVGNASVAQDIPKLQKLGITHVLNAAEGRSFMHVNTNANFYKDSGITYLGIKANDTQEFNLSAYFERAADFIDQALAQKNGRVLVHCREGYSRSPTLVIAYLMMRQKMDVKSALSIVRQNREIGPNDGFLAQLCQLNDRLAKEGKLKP
OUTPUT: > 200 µM

INPUT: Test system Dual specificity protein phosphatase 3 (Homo sapiens); read-out IC50; what value for Cc1cc(C(=O)O)ccc1N1C(=O)/C(=C/c2ccccc2)SC1=S ?
OUTPUT: > 200 µM

INPUT: What IC50 appears in the records for this molecule with Dual specificity protein phosphatase 3 (Homo sapiens)? Cc1ccc(/C=C2\SC(=S)N(c3cccc(C(=O)O)c3)C2=O)cc1
OUTPUT: 123 µM

INPUT: State its IC50 on Dual specificity protein phosphatase 3 (Homo sapiens): O=C(O)c1cccc(N2C(=O)/C(=C/c3ccccc3)SC2=S)c1 (stereo in doubt; 5t)
OUTPUT: > 100 µM

INPUT: Give IC50 (Dual specificity protein phosphatase 3 (Homo sapiens)) of the following molecule: O=C(O)c1cc(N2C(=O)/C(=C/c3ccccc3)SC2=S)ccc1O
OUTPUT: 130 µM

INPUT: Request - read-out IC50 | tested on Dual specificity protein phosphatase 3 (Homo sapiens) | molecule O=C(O)c1ccc(CN2C(=O)/C(=C/c3ccccc3)SC2=S)cc1
OUTPUT: > 200 µM

INPUT: Give IC50 (Dual specificity protein phosphatase 3 (Homo sapiens)) of the following molecule: O=C1/C(=C/c2ccccc2)SC(=S)N1c1ccc(CP(=O)(O)O)cc1
OUTPUT: > 200 µM

INPUT: Can you look up IC50 on Dual specificity protein phosphatase 3 (Homo sapiens) for O=C(O)Cc1ccc(N2C(=O)/C(=C/c3ccccc3)SC2=S)cc1 ?
OUTPUT: 100 µM

INPUT: Find the measured IC50: item O=C1/C(=C/c2ccccc2)SC(=S)N1c1ccc(S(=O)(=O)O)cc1 , target or system Dual specificity protein phosphatase 3 (Homo sapiens).
OUTPUT: > 200 µM

====

Please go through the items and note down their pIC50.
Target chain: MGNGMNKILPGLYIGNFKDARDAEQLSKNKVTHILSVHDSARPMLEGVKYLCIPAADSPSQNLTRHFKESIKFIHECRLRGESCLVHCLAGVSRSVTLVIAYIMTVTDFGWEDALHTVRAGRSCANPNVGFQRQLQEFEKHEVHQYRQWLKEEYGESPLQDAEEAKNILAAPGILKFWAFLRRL
Units for pIC50: none; it is -log10 of a concentration expressed in mol/L.

INPUT: Can you share its pIC50? I mean this compound: O=C(O)c1cccc(N2C(=O)/C(=C/c3ccc([N+](=O)[O-])cc3)SC2=S)c1
OUTPUT: 5.59

INPUT: Reported pIC50 for O=C1/C(=C/c2ccccc2)SC(=S)N1c1ccc(CP(=O)(O)O)cc1 : what is it?
OUTPUT: 5.00

INPUT: For O=C(O)c1cc(C(=O)O)cc(N2C(=O)/C(=C/c3ccccc3)SC2=S)c1 , what is its reported pIC50?
OUTPUT: 3.99

====

# assayed.target: Dual specificity protein phosphatase 22 (Homo sapiens, UniProt Q9NRW4)
# Sequence (Q9NRW4 whole entry): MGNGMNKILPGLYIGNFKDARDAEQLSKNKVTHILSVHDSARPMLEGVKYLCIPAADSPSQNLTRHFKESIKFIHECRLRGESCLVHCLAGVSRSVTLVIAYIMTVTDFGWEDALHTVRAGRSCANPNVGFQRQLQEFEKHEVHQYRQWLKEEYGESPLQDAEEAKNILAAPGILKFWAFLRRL
# protocol.details: Inhibition of JNK-stimulating phosphatase-1 (JSP-1)
assay.readout: IC50

INPUT: Form: Entry = O=C1/C(=C/c2ccccc2)SC(=S)N1c1ccccc1 | System = Dual specificity protein phosphatase 22 (Homo sapiens, UniProt Q9NRW4) | IC50 = ____
OUTPUT: > 200 µM

INPUT: Requested read-out IC50, target or system Dual specificity protein phosphatase 22 (Homo sapiens, UniProt Q9NRW4), entry COC(=O)c1ccc(N2C(=O)/C(=C/c3ccccc3)SC2=S)cc1
OUTPUT: > 200 µM

INPUT: Fill in the recorded IC50 for this molecule, with Dual specificity protein phosphatase 22 (Homo sapiens, UniProt Q9NRW4) as test system: O=C(O)c1ccc(N2C(=O)/C(=C/c3ccc(F)cc3)NC2=S)cc1
OUTPUT: > 200 µM
